MEASURED ON: α-EfCA (Enterococcus faecium, UniProt Q3XYE8)
Construct: gene HMPREF0351_11360
Sequence (Q3XYE8 1-234): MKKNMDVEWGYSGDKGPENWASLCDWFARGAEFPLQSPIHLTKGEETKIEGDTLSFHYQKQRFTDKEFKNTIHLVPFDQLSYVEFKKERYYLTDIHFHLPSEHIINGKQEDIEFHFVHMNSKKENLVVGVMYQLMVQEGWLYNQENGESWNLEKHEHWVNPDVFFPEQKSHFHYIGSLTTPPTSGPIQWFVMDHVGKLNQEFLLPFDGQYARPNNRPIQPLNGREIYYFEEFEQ
EXPERIMENTAL PROTOCOL: biochemical
Parameters: stopped-flow CO2 hydration assay of recombinant carbonic anhydrases, pH 7.4 (alpha) or 8.3 (gamma), KI
QUANTITY MEASURED: Ki
Remember to quote the unit after the number.

{"STRUCTURE SMILES STRING": "CC(C)CN(CC(C)C)C(=O)S", "Ki": "665 nM"}
{"STRUCTURE SMILES STRING": "CN(Cc1ccccc1)C(=O)S", "Ki": "686 nM"}
{"STRUCTURE SMILES STRING": "O=C(S)N1CCOCC1", "Ki": "740 nM"}
{"STRUCTURE SMILES STRING": "O=C(S)N1CCN(C(=O)S)CC1", "Ki": "915 nM"}
{"STRUCTURE SMILES STRING": "CCCCN(CCCC)C(=O)S", "Ki": "517 nM"}

Task item: Return reported Ki; argument: CN1CCN(C(=O)S)CC1
Reply: 959 nM

Task item: So what's the measured Ki for this one? CCCN(CCC)C(=O)S
Reply: 550 nM

Task item: Fill in the blank: the reported Ki of CCOC(=O)CN(C)C(=O)S is ____.
Reply: 788 nM

Task item: Fill in: Ki of CCCCN(CC)C(=O)S is ___
Reply: 806 nM

----------
Listed compounds paired with reported Ki
MEASURED ON: α-EfCA (Enterococcus faecium, UniProt Q3XYE8)
Construct: gene HMPREF0351_11360
EXPERIMENTAL PROTOCOL: stopped-flow CO2 hydrase assay
Format: biochemical
Please reply with the bare figure in µM and do not write the unit itself.

Please review the following examples before continuing.
{"COMPOUND": "COc1ccc(CCNC(=O)S)cc1OC [compound 12, MTC 12]", "MEASURED ON": "α-EfCA (Enterococcus faecium, UniProt Q3XYE8)", "READOUT UNIT": "µM", "REPORTED VALUE": 0.357}
{"COMPOUND": "O=C(S)N1CCN(c2ccc(C(F)(F)F)cc2)CC1 [compound 13, MTC 13]", "MEASURED ON": "α-EfCA (Enterococcus faecium, UniProt Q3XYE8)", "READOUT UNIT": "µM", "REPORTED VALUE": 0.477}
{"COMPOUND": "O=C(S)N1CCN(c2ccc(F)cc2)CC1 [compound 14, MTC 14]", "MEASURED ON": "α-EfCA (Enterococcus faecium, UniProt Q3XYE8)", "READOUT UNIT": "µM", "REPORTED VALUE": 0.195}
{"COMPOUND": "O=C(S)N1CCN(c2cccc(Cl)c2)CC1 [compound 15, MTC 15]", "MEASURED ON": "α-EfCA (Enterococcus faecium, UniProt Q3XYE8)", "READOUT UNIT": "µM", "REPORTED VALUE": 0.3}
{"COMPOUND": "O=C(CN1CCN(C(=O)S)CC1)NC1CCCCC1 [compound 5, MTC 5]", "MEASURED ON": "α-EfCA (Enterococcus faecium, UniProt Q3XYE8)", "READOUT UNIT": "µM", "REPORTED VALUE": 0.29}

Task item: Fill in the recorded Ki for this compound, with α-EfCA (Enterococcus faecium, UniProt Q3XYE8) as test system: O=C(S)NCCc1ccccc1 [compound 9, MTC 9]
Reply: 0.428
